Assay: Plasma pharmacokinetics of CUDC-101 and metabolite in patients
Type: in vivo, human
Conditions: human, plasma, iv, 275 mg/m^2
test readout: Tmax (min)
Express your answer in min, writing the number without its unit.

Prompt: Reported Tmax, compound C#Cc1cccc(Nc2ncnc3cc(OC)c(OCCCCCCC(=O)NO)cc23)c1 : ____
Response: 44.5

###

Experiment: Plasma pharmacokinetics of CUDC-101 and metabolite in patients
Format: in vivo, human
Settings: human, plasma, iv, 225 mg/m2
test readout: Vd (L)
Express your answer in L, writing the number without its unit.

Prompt: Reported Vd, molecule C#Cc1cccc(Nc2ncnc3cc(OC)c(OCCCCCCC(=O)NO)cc23)c1 [CUDC-101] : ____
Response: 26.6

###

Assay: Plasma pharmacokinetics of CUDC-101 and metabolite in patients
Type: in vivo, human
Details: human, plasma, iv, 275 mg/m^2
test readout: Cmax

Prompt: Reported Cmax, molecule C#Cc1cccc(Nc2ncnc3cc(OC)c(OCCCCCCC(=O)NO)cc23)c1 : ____
Response: 7820 ng/mL

###

Assay: Plasma pharmacokinetics of CUDC-101 and metabolite in patients
Type: in vivo, human
Conditions: human, plasma, iv, 275 mg/m^2
test readout: clearance (mL/min)
Express your answer in mL/min, writing the number without its unit.

Prompt: Reported clearance, compound C#Cc1cccc(Nc2ncnc3cc(OC)c(OCCCCCCC(=O)NO)cc23)c1 [CUDC-101] : ____
Response: 1020

###

Test: Plasma pharmacokinetics of CUDC-101 and metabolite in patients
Type: in vivo, human
Settings: human, plasma, iv, 275 mg/m2
test readout: clearance (mL/min)
Express your answer in mL/min, writing the number without its unit.

Prompt: Reported clearance, molecule C#Cc1cccc(Nc2ncnc3cc(OC)c(OCCCCCCC(=O)NO)cc23)c1 : ____
Response: 1060

###

Test: Plasma pharmacokinetics of CUDC-101 and metabolite in patients
Format: in vivo, human
Details: human, plasma, iv, 275 mg/m2
test readout: Cmax

Prompt: Reported Cmax, compound C#Cc1cccc(Nc2ncnc3cc(OC)c(OCCCCCCC(=O)NO)cc23)c1 : ____
Response: 7890 ng/mL

###

Experiment: Plasma pharmacokinetics of CUDC-101 and metabolite in patients
Assay type: in vivo, human
Conditions: human, plasma, iv, 225 mg/m^2
test readout: Tmax (h)
Express your answer in h, writing the number without its unit.

Prompt: Reported Tmax, molecule C#Cc1cccc(Nc2ncnc3cc(OC)c(OCCCCCCC(=O)NO)cc23)c1 [CUDC-101] : ____
Response: 1.25

###

Test: Plasma pharmacokinetics of CUDC-101 and metabolite in patients
Assay type: in vivo, human
Details: human, plasma, iv, 275 mg/m2
test readout: Tmax (min)
Express your answer in min, writing the number without its unit.

Prompt: Reported Tmax, molecule C#Cc1cccc(Nc2ncnc3cc(OC)c(OCCCCCCC(=O)NO)cc23)c1 : ____
Response: 30

###

Assay: Plasma pharmacokinetics of CUDC-101 and metabolite in patients
Format: in vivo, human
Details: human, plasma, iv, 275 mg/m2
test readout: AUC(0-t) (ng·h/mL)
Express your answer in ng·h/mL, writing the number without its unit.

Prompt: Reported AUC(0-t), compound C#Cc1cccc(Nc2ncnc3cc(OC)c(OCCCCCCC(=O)NO)cc23)c1 [CUDC-101] : ____
Response: 8000

###

Assay: Plasma pharmacokinetics of CUDC-101 and metabolite in patients
Format: in vivo, human
Conditions: human, plasma, iv, 225 mg/m^2
test readout: Vd
Remember to put the unit after the number in your answer.

Prompt: Reported Vd, compound C#Cc1cccc(Nc2ncnc3cc(OC)c(OCCCCCCC(=O)NO)cc23)c1 [CUDC-101] : ____
Response: 54.4 L

The origin of these recorded values is paper PMC6607903.
